test system: Rattus norvegicus; assay: Antiinflammatory activity against carrageenan-induced albino rat hind paw edema model assessed as edema rate at 15 mg/kg, po administered 1 hr before carrageenan challenge measured after 2 hrs; assay type: functional
Assignment: determine reported Activity for the given compounds.
One number for each entry, in %.

For orientation, consider the following solved cases.
>  <query-smiles>
CCOC(=O)c1sc(NC(C)=O)c(C(=O)OCC)c1C

>  <display-unit>
%

>  <Activity>
-12.11

$$$$
>  <query-smiles>
CCOC(=O)c1sc(N)c(C(=O)NNC=O)c1C

>  <display-unit>
%

>  <Activity>
-38.2

$$$$
>  <query-smiles>
CCOC(=O)c1sc(N)c(C(=O)N/N=C/c2ccc(OC)cc2)c1C

>  <display-unit>
%

>  <Activity>
-1.52

$$$$

// field: Activity; key: "CCOC(=O)c1sc(N)c(C(=O)NNc2nc(C)cs2)c1C" ; value = -37.17

---

Assignment: determine reported Activity for the given compounds.
system: Mus musculus; test: Analgesic activity in Swiss albino mouse at 20 mg/kg, po assessed as reaction time after 90 mins by hot plate method; assay type: functional
Answers are plain numbers, in s.

>  <query-smiles>
CCOC(=O)c1sc(NC(C)=O)c(C(=O)OCC)c1C

>  <Activity (s)>
6.08

$$$$
>  <query-smiles>
CC(=O)Oc1ccccc1C(=O)O

>  <Activity (s)>
7.78

$$$$
>  <query-smiles>
CCOC(=O)c1sc(N)c(C(=O)NNC(N)=S)c1C

>  <Activity (s)>
6.14

$$$$

Let us move to another entry and its Activity.
// field: Activity; key: "CCOC(=O)c1sc(N)c(C(=O)NN)c1C" ; value = 7.86

---

tested on: Mus musculus; experiment: Analgesic activity in Swiss albino mouse at 20 mg/kg, po assessed as reaction time after 30 mins by hot plate method; assay type: functional
Assignment: determine reported Activity for the given compounds.
Give bare numbers, in s.

>  <query-smiles>
CCOC(=O)c1sc(N)c(C(=O)N/N=C/c2ccc(OC)cc2)c1C

>  <assay-system>
Mus musculus

>  <reported-value>
6.42

$$$$
>  <query-smiles>
CCOC(=O)c1sc(N)c(C(=O)N2NC(=O)CC2=O)c1C

>  <assay-system>
Mus musculus

>  <reported-value>
10.22

$$$$
>  <query-smiles>
CCOC(=O)c1sc(N)c(C(=O)n2nc(C)cc2C)c1C

>  <assay-system>
Mus musculus

>  <reported-value>
7.72

$$$$
>  <query-smiles>
CCOC(=O)c1sc(N)c(C(=O)NNC(N)=S)c1C

>  <assay-system>
Mus musculus

>  <reported-value>
5.44

$$$$

// field: Activity; key: "CCOC(=O)c1sc(N)c(C(=O)NN)c1C" ; value = 6.12
